- target-entity: human GLP-1 receptor (Homo sapiens)
- Construct: expressed in transfected cells; host or cells: BHK (Baby Hamster Kidney) cells, clone BHK 467-12A KZ-10, stably transfected, with CRE-luciferase reporter
- Sequence (P43220 24-463): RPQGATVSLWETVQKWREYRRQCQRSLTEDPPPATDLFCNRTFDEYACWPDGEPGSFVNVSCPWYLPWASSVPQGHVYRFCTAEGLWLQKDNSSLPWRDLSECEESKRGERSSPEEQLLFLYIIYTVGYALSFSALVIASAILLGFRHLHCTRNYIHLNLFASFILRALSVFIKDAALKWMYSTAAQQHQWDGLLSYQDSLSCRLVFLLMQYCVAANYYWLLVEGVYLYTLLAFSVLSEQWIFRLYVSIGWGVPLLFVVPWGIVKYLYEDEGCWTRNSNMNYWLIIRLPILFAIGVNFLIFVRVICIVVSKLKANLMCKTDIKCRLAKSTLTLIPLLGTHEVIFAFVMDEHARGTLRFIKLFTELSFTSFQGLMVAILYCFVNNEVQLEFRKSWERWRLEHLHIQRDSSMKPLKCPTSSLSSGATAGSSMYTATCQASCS
- method-notes: Human GLP-1 receptor in vitro potency assay (CRE-luciferase reporter, BHK cells)
- Type: cell-based
- test-settings: Table 4a; BHK cells expressing human GLP-1R, CRE-Luc, 3 hours; read-out: Human GLP-1R potency [EC50 (pM)]
Starred links: 1 amine or outer side, 2 acyl side, 3 side chain; linkers in the order of their positions; H or OH if unused. Non-standard residues stand in square brackets, D forms with d. Groups on a side chain read outwards from the residue. *: point of attachment. C20 diacid = O=C(O)CCCCCCCCCCCCCCCCCCC(=O)*; C18 diacid = O=C(O)CCCCCCCCCCCCCCCCC(=O)*; C16 diacid = O=C(O)CCCCCCCCCCCCCCC(=O)*; γGlu = O=C(O)[C@H](CCC(=O)[*:2])N[*:1]; Trx = NC[C@H]1CC[C@H](C(=O)O)CC1; AEEA = NCCOCCOCC(=O)O; Aib = CC(C)(N)C(=O)O
quantity-kind: log10(EC50) (log10 of the value in pM)
Values below are the log10 of the recorded EC50, with pM as the unit.

[[record]]
substance = "HWEGTFTSDVSSYLEEK([AEEA-AEEA-γGlu-C20 diacid])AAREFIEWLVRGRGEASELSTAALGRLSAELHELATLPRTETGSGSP-NH2 [Compound 0473]"
target_entity = "human GLP-1 receptor (Homo sapiens)"
quantity_kind = "log10(EC50)"
value = 0.49

[[record]]
substance = "H-H[Aib]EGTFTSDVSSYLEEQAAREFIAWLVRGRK([AEEA-AEEA-γGlu-C18 diacid])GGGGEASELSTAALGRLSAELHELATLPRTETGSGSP-NH2 [Compound 0111]"
target_entity = "human GLP-1 receptor (Homo sapiens)"
quantity_kind = "log10(EC50)"
value = 0.48

[[record]]
substance = "H-H[Aib]EGTFTSDVSSYLEEK([AEEA-AEEA-γGlu-C16 diacid])AAREFIAWLVRGRGGGGGEASELSTAALGRLSAELHELATLK([AEEA-AEEA-γGlu-C16 diacid])RTETGSGSP-NH2 [Compound 0397]"
target_entity = "human GLP-1 receptor (Homo sapiens)"
quantity_kind = "log10(EC50)"
value = 0.58

[[record]]
substance = "H-H[Aib]EGTFTSDVSSYLEEQAARK([AEEA-AEEA-γGlu-C16 diacid])FIAWLVRGRGGGGGASELSTAALGRLSK([AEEA-AEEA-γGlu-C16 diacid])ELHELATLPRTETGSGSP-NH2 [Compound 0296]"
target_entity = "human GLP-1 receptor (Homo sapiens)"
quantity_kind = "log10(EC50)"
value = 0.60

[[record]]
substance = "H-H[Aib]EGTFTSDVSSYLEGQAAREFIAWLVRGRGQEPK([AEEA-AEEA-γGlu-Trx-C20 diacid])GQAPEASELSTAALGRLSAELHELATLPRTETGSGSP-NH2 [Compound 0539]"
target_entity = "human GLP-1 receptor (Homo sapiens)"
quantity_kind = "log10(EC50)"
value = 0.70

[[record]]
substance = "H-H[Aib]EGTFTSDVSSYLEEQAARK([γGlu-γGlu-γGlu-γGlu-C20 diacid])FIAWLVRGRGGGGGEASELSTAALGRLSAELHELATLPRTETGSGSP-NH2 [Compound 0633]"
target_entity = "human GLP-1 receptor (Homo sapiens)"
quantity_kind = "log10(EC50)"
value = 1.45


Dear colleague, could you please provide log10(EC50) for the substances listed below?
1. H-HAEGTFTSDVSK([AEEA-AEEA-γGlu-C16 diacid])YLEEQAVREFIAK([AEEA-AEEA-γGlu-C16 diacid])LVRGRGGGEASELSTAALGRLSAELHELATLPRTETGSGSP-NH2 [Compound 0482]
2. H-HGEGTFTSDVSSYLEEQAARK([AEEA-AEEA-γGlu-C16 diacid])FIEWLVRGK([AEEA-AEEA-γGlu-C16 diacid])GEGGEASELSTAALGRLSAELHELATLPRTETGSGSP-NH2 [Compound 0087]
3. HWEGTFTSDVSSYLEEQAAREFIAWLVRGRK([AEEA-AEEA-γGlu-C18 diacid])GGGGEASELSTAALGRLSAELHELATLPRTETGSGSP-NH2 [Compound 0648]
4. H-H[Aib]EGTFTSDVSSYLEEQAAREFIAWLVRK([AEEA-AEEA-γGlu-C16 diacid])RGGGGGASELSTAALGRLSK([AEEA-AEEA-γGlu-C16 diacid])ELHELATLPRTETGSGSP-NH2 [Compound 0297]

A)
1. 1.56
2. 1.38
3. 1.23
4. 1.48

---

- method-notes: Pharmacokinetic studies in Beagle dogs after oral administration of SNAC-based tablets
- Type: in vivo
- test-settings: male, Beagle, dog, in vivo, po, T½ (hr)
Starred links: 1 amine or outer side, 2 acyl side, 3 side chain; linkers in the order of their positions; H or OH if unused. Non-standard residues stand in square brackets, D forms with d. Groups on a side chain read outwards from the residue. *: point of attachment. C20 diacid = O=C(O)CCCCCCCCCCCCCCCCCCC(=O)*; C18 diacid = O=C(O)CCCCCCCCCCCCCCCCC(=O)*; C16 diacid = O=C(O)CCCCCCCCCCCCCCC(=O)*; γGlu = O=C(O)[C@H](CCC(=O)[*:2])N[*:1]; εLys = N[C@@H](CCCCN[*:1])C(=O)[*:2]; Trx = NC[C@H]1CC[C@H](C(=O)O)CC1; AEEA = NCCOCCOCC(=O)O; Aib = CC(C)(N)C(=O)O
quantity-kind: half-life (h)
One number for each entry, in h.

Here's what some known entries look like.
[[record]]
substance = "H-H[Aib]EGTFTSDK([AEEA-AEEA-γGlu-C16 diacid])SSYLEEQAAREFIAWLVRGRGGGGGEASELSTAALGRLSAELHK([AEEA-AEEA-γGlu-C16 diacid])LATLPRTETGSGSP-NH2 [Compound 0259]"
quantity_kind = "half-life"
value = 97

[[record]]
substance = "H-H[Aib]EGTFTSDVSK([AEEA-AEEA-γGlu-C16 diacid])YLEEQAARK([AEEA-AEEA-γGlu-C16 diacid])FIAWLVRGRQEGGGGGASELSTAALGRLSAELHELATLPRTETGSGSP-NH2 [Compound 0575]"
quantity_kind = "half-life"
value = 91

[[record]]
substance = "H-H[Aib]EGTFTSDVSK([AEEA-AEEA-γGlu-C18 diacid])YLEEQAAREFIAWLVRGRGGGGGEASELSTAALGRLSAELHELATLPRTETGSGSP-NH2 [Compound 0640]"
quantity_kind = "half-life"
value = 29

[[record]]
substance = "H-H[Aib]EGTFTSDVSSYLEEQAARK([εLys-AEEA-AEEA-γGlu-Trx-C20 diacid])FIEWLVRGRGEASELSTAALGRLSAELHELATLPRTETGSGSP-NH2 [Compound 0439]"
quantity_kind = "half-life"
value = 24

[[record]]
substance = "H-H[Aib]EGTFTSDVSK([AEEA-AEEA-γGlu-C16 diacid])YLEEQAARK([AEEA-AEEA-γGlu-C16 diacid])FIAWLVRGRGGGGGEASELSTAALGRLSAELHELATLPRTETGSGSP-NH2 [Compound 0516]"
quantity_kind = "half-life"
value = 99

[[record]]
substance = "H-H[Aib]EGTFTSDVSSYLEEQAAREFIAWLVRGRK([AEEA-AEEA-γGlu-Trx-C20 diacid])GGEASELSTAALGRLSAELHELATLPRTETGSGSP-NH2 [Compound 0512]"
quantity_kind = "half-life"
value = 21


Dear colleague, could you please provide half-life for the substances listed below?
1. H-H[Aib]EGTFTSDVSK([AEEA-AEEA-γGlu-C16 diacid])YLEEQAARK([AEEA-AEEA-γGlu-C16 diacid])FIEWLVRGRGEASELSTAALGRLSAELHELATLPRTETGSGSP-NH2 [Compound 0577]
2. H-H[Aib]EGTFTSDVSSYLEEQAAK([εLys-AEEA-AEEA-γGlu-Trx-C20 diacid])EFIEWLVRGRGEASELSTAALGRLSAELHELATLPRTETGSGSP-NH2 [Compound 0436]

A)
1. 93
2. 35

Dear colleague, could you please provide half-life for the substances listed below?
1. H-H[Aib]EGTFTSDVSK([AEEA-AEEA-γGlu-C16 diacid])YLEEQAARK([AEEA-AEEA-γGlu-C16 diacid])FIEWLVRGRGEGGGGGASELSTAALGRLSAELHELATLPRTETGSGSP-NH2 [Compound 0576]
2. H-H[Aib]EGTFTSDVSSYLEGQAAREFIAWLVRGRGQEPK([AEEA-AEEA-γGlu-C18 diacid])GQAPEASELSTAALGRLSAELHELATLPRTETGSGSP-NH2 [Compound 0084]

A)
1. 94
2. 47
